Overview of recorded activation for various molecules
assay: SMARCA2 (BRM) function activators, primary screen, cell-based, luminescence, high throughput (AID 652017); settings: MG213 cells, MMTV-luciferase reporter, dexamethasone, overnight; at 9.1 µM; hits give high values;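 further: 0% = vehicle wells and 100% = reference activator wells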
Hit rate of the full screen: of about 370,000 compounds, about 3,800 (1%) were called active. Shown is part of a subset that was picked to be rich in actives.
I only need the number, in %, no unit after it.

Worked examples, 8 molecules total:
molecule=O=S(=O)(Cc1nnnn1-c1ccccc1)c1ccccc1 observed_result=3.47
molecule="COC(=O)C1CN(CCc2ccccc2)CCS(=O)(=O)N1Cc1ccc(F)cc1 (stereo not given)" observed_result=0.54
molecule=CCOC(=O)[C@]12CCCCC/C=C\1N(Cc1ccc(OC)cc1)C(=O)[C@H]2CC(=O)NCc1ccc(C)o1 observed_result=-0.44
molecule=CCOC(=O)c1cccc(NC(=O)CN(C)S(=O)(=O)c2ccc(-c3cocn3)s2)c1 observed_result=-7.26
molecule="COC(=O)C1CN(Cc2ccc(F)cc2)CCS(=O)(=O)N1Cc1ccc(Cl)cc1 (stereo not given)" observed_result=-2.03
molecule=Cc1ccc(C(=O)NNC(=O)c2cccs2)cc1 observed_result=9.31
molecule="O=C(Nc1ccc(Br)cc1)OCCN1C(=O)CCC12CCC(c1ccccc1)CC2 (stereo not given)" observed_result=-0.9
molecule=Cc1cccc(-n2c(O)c(C=Nc3ccccc3N)c(=O)[nH]c2=O)c1 observed_result=9.92

In the following, a different molecule is considered.
Reported activation ( COc1ccc(-c2csc(Cc3nc(O)cs3)n2)cc1 ) = 16.8

* * *

test: SMARCA2 (BRM) function activators, primary screen, cell-based, luminescence, high throughput (AID 652017); conditions: MG213 cells, MMTV-luciferase reporter, dexamethasone, overnight; at 9.1 µM; hits give high values;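 further: 0% = vehicle wells and 100% = reference activator wells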
The whole screen tested about 370,000 compounds, of which about 3,800 (1%) were called active. The sample holds actives, similar compounds and a random draw of the others, so the mix is not that of the screen.
parameter_measured: activation (%)
Expressed in %, but write only the number.

compound=Cc1ccc(-n2c(SCC(=O)Nc3ccc(S(=O)(=O)Nc4nccs4)cc3)nnc2-c2ccncc2)cc1 observed_result=-0.03
compound=COc1ccc(-n2c(COc3ccccc3)nnc2SCC(=O)Nc2ccc3c(c2)OCO3)cc1 observed_result=-4.96
compound=CC(C)CNC(=O)OCc1cn(Cc2ccc(F)cc2)nn1 observed_result=-0.88

O=C(Nc1cccc(Cl)c1)OC1CC2CC1[C@H]1CCCCN1[C@H]2Cc1ccccc1 (some centres undefined) has a reported activation of -2.01

# compound CCOC(=O)N1CCN(Cc2nc3cc(NC(=O)CC)ccc3n2CC)CC1 ; its activation = -1.94

The reported activation of the compound CC1CCC(NS(=O)(=O)c2ccc3c(c2)CC(=O)N3)CC1 (centres undefined) was -2.52

* * *

Reported activation by item:
assay: SMARCA2 (BRM) function activators, primary screen, cell-based, luminescence, high throughput (AID 652017); settings: MG213 cells, MMTV-luciferase reporter, dexamethasone, overnight; at 9.1 µM; hits give high values;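 further: 0% = vehicle wells and 100% = reference activator wells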
Screen size: about 370,000 compounds; about 3,800 (1%) were called active. The list comes from a sample in which actives are over-represented; it also holds close analogues and randomly drawn compounds.
Return type: number; implicit unit %.

# example entries with known answers
compound_smiles=CCOC(=O)CCCNC(=O)COC(=O)c1cc(Br)c(Br)s1 observed_result=-1.12
compound_smiles=CN1[C@H](Cc2ccccc2)COc2cccc(N3CCSCC3)c2S1(=O)=O observed_result=0.97
compound_smiles=Cc1ccc(CSc2nnc(SCC(=O)NN=Cc3cc(Br)ccc3F)s2)cc1 observed_result=-6.75
compound_smiles=O=C(CSc1nc2ccccc2o1)N1CCN(c2ccc(Cl)cc2)CC1 observed_result=-2.94

activation measured on Cc1ccc(Nc2cc(C)nc3c(C)ccc([N+](=O)[O-])c23)cc1 = -1.39

* * *

test: SMARCA2 (BRM) function activators, primary screen, cell-based, luminescence, high throughput (AID 652017); settings: MG213 cells, MMTV-luciferase reporter, dexamethasone, overnight; at 9.1 µM; hits give high values;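 further: 0% = vehicle wells and 100% = reference activator wells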
The campaign covered roughly 370,000 compounds. About 3,800 (1%) were called active. The sample holds actives, similar compounds and a random draw of the others, so the mix is not that of the screen.
Listed next: entries and their corresponding activation.
The answer is to be given in %; state only the numeric part.

For reference, reported activation for COc1ccc(NC(=O)ON=C2c3ccccc3-c3ccccc32)cc1 stands at 3.56

// field: activation; key: O=C1Cc2cc(S(=O)(=O)Nc3cccc(F)c3)ccc2N1 ; value = 9.16

The reported activation of the compound O=C(c1cccs1)C1C(c2ccc(Br)cc2)NC(=S)NC1(O)C(F)(F)F (stereo not drawn) was 9.18

* * *

assay: SMARCA2 (BRM) function activators, primary screen, cell-based, luminescence, high throughput (AID 652017); details: MG213 cells, MMTV-luciferase reporter, dexamethasone, overnight; at 9.1 µM; hits give high values;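 further: 0% = vehicle wells and 100% = reference activator wells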
Out of some 370,000 compounds screened, about 3,800 (1%) were called active. This is one part of a sample in which actives are shown more often than they occur.
Consider the following molecules and their measured activation readings.
# unit: % | format: bare number

# count of solved cases: 3
compound_smiles=Cc1ccc(NC(=S)N2CCN(c3ncccn3)CC2)cc1C parameter_measured=activation observed_result=2.65
compound_smiles=C[C@H](C(=O)N(C)c1ccccc1)[C@@H](O)c1ccc2ccccc2c1 parameter_measured=activation observed_result=-2.92
compound_smiles=CCNC(=S)N1CCN(c2ncccn2)CC1 parameter_measured=activation observed_result=8.35

get_value(item= O=S(=O)(c1ccc(F)cc1)n1ccc(-c2cnc(-c3ccccc3)s2)n1 , readout=activation) returns 0.36

Recorded result, CS(=O)(=O)c1ccc(C(=O)NNC(=O)c2cccs2)cc1 , activation: -1.1

Documented activation of COc1ccc(CN(C)Cc2nc3cc(OC)c(OC)cc3c(=O)[nH]2)c(OC)c1 : -2.98

* * *

assay: SMARCA2 (BRM) function activators, primary screen, cell-based, luminescence, high throughput (AID 652017); details: MG213 cells, MMTV-luciferase reporter, dexamethasone, overnight; at 9.1 µM;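 further: 0% = vehicle wells and 100% = reference activator wells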
Screen size: about 370,000 compounds; about 3,800 (1%) were called active. Cut-off read from the data, not from the text of the source: active = activation above about 7.8%; inactive = the rest. What follows is part of a selection rich in actives, with near analogues and random picks from the rest.
Choose one outcome from this list and give only that: active, inactive

compound="COc1ccccc1C(=O)N1CCNC(=O)C1CC(=O)Nc1ccc(Cl)cc1 (stereo not given)" cat=inactive

Exercise: Please let me know the test result on file for Cc1cccc(NC(=S)N2CCC(c3nc4ccccc4s3)CC2)c1 .
Key: inactive

Exercise: Kindly provide the recorded test outcome for the following compound: O=C(NCCCN1CCCCCC1)c1ccc(N2CCCC2=O)cc1
Key: inactive

Exercise: For COc1ccc2nc(/N=C(\N)NC(=O)Nc3ccccc3)nc(C)c2c1 , what call appears in the results of this test?
Key: active

Exercise: What call does the record list for CCOC(=O)C1C(c2ccc(O)cc2)NC(=O)NC1(O)C(F)(F)F (stereo not given) ?
Key: inactive

Ref: PubChem BioAssay AID652017
